experiment: Half life in Sprague-Dawley rat brain at 6.2 mg equivalents/kg, iv; format: ADME, tissue-based
experimental_readout: half-life (min)

1. O=C(O)c1cc(-c2ccc(OC3CC3)c(Cl)c2)ncn1
42

###

assay: Half life in Sprague-Dawley rat cortex at 10 mg equivalents/kg, po after 0.25 to 12 hrs; assay type: ADME, organism-based
experimental_readout: half-life

1) O=C(O)c1cc(-c2ccc(OC3CC3)c(Cl)c2)ncn1
1.9 h

###

assay: Tmax in Sprague-Dawley rat liver at 10 mg equivalents/kg, po after 0.25 to 12 hrs; type: ADME, organism-based
experimental_readout: Tmax (min)

1) O=C(O)c1cc(-c2ccc(OC3CC3)c(Cl)c2)ncn1
30

###

target: UniProtKB O88867; experiment: Inhibition of rat KMO assessed as conversion of kynurenine to 3-hydroxykynurenine by LC-MS/MS analysis
pIC50: −log10 of the molar value.
experimental_readout: pIC50

1) O=C(O)c1cc(-c2ccc(Cl)c(Cl)c2)ncn1
8.49
2) Cc1ccc(-c2cc(C(=O)O)ncn2)cc1Cl
8.39
3) O=C(O)c1cc(-c2ccc(OC(F)(F)F)c(Cl)c2)ncn1
7.77
4) O=C(O)c1cc(-c2ccc(OC3CC3)c(Cl)c2)ncn1
8.40
5) O=C(O)c1cc(-c2ccc(F)c(F)c2)ncn1
8.70

###

assay: Tmax in Sprague-Dawley rat kidney at 10 mg equivalents/kg, po after 0.25 to 12 hrs; type: ADME, organism-based
experimental_readout: Tmax (min)

1. O=C(O)c1cc(-c2ccc(OC3CC3)c(Cl)c2)ncn1
30

###

experiment: Tmax in Sprague-Dawley rat plasma at 12 mg equivalents/kg, po; type: ADME, cell-free
experimental_readout: Tmax (h)

1. O=C(O)c1cc(-c2ccc(OC3CC3)c(Cl)c2)ncn1
1

###

assay: Half life in Sprague-Dawley rat brain at 12 mg equivalents/kg, po; format: ADME, tissue-based
experimental_readout: half-life (min)

1) O=C(O)c1cc(-c2ccc(OC3CC3)c(Cl)c2)ncn1
102

###

experiment: Lipophilicity, log P of the compound at pH 7; format: physicochemical; conditions: buffer
experimental_readout: logD

1. O=C(O)c1cc(-c2ccc(Cl)c(F)c2)ncn1
0.4
2. O=C(O)c1cc(-c2ccc(OC3CC3)c(Cl)c2)ncn1
0.9
3. O=C(O)c1cc(-c2cc(Cl)cc(Cl)c2)ncn1
1.15
4. O=C(O)c1cc(-c2ccc(Cl)cc2)ncn1
-0.11
5. O=C(O)c1cc(-c2ccc(OC(F)(F)F)c(Cl)c2)ncn1
1.77
6. O=C(O)c1cc(-c2ccc(F)c(Cl)c2)ncn1
0.41

###

experiment: Tmax in Sprague-Dawley rat brain at 12 mg equivalents/kg, po; format: ADME, tissue-based
experimental_readout: Tmax (h)

1. O=C(O)c1cc(-c2ccc(OC3CC3)c(Cl)c2)ncn1
1

###

The entries below are paired with their reported IC50.
biological target: Kynurenine 3-monooxygenase (Homo sapiens); assay: Inhibition of KMO in human PBMC
Sequence (O15229 whole entry): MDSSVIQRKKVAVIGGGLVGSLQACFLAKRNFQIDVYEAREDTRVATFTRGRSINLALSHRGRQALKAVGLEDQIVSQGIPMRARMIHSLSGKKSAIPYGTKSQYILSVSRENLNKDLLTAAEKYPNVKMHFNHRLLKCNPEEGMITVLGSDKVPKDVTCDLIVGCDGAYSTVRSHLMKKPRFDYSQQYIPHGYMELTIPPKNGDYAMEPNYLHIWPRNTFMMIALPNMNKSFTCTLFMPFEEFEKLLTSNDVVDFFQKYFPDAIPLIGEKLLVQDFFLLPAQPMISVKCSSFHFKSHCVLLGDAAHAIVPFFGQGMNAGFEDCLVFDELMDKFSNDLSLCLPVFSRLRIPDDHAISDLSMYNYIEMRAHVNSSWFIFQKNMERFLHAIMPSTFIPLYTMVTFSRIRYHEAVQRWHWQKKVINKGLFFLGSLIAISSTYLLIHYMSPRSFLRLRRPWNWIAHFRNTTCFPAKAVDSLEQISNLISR
experimental_readout: IC50 (nM)

1. O=C(O)c1cc(-c2ccc(Cl)c(Cl)c2)ncn1
72
2. O=C(O)c1cc(-c2ccc(OC3CC3)c(Cl)c2)ncn1
82

###

experiment: AUC (0 to 240 mins) in Sprague-Dawley rat striatal extracellular fluid at 10 mg/kg, po by […] analysis; type: ADME, organism-based; design: time < 4 hr, dose 10 mg/kg, route oral
experimental_readout: AUC(0-t) at 4 h (µM·h)

1) O=C(O)c1cc(-c2ccc(OC3CC3)c(Cl)c2)ncn1
0.066

###

system: Liver; test: Intrinsic clearance in mouse liver microsomes assessed per mg of protein; assay type: ADME; design: unit not given here
The entries below are paired with their reported CLH.
experimental_readout: CLH

1. O=C(O)c1cc(-c2ccc(OCC3CC3)c(Cl)c2)ncn1
< 0.02
2. O=C(O)c1cc(-c2ccc(OC3CCCCC3)c(Cl)c2)ncn1
< 0.02
3. O=C(O)c1cc(-c2ccc(OC(F)(F)F)c(Cl)c2)ncn1
< 0.02
4. CC(C)Oc1ccc(-c2cc(C(=O)O)ncn2)cc1Cl
< 0.02
5. O=C(O)c1cc(-c2cc(Cl)c3occc3c2)ncn1
< 0.02
6. O=C(O)c1cc(-c2ccc(OC3CCCC3)c(Cl)c2)ncn1
< 0.02
7. O=C(O)c1cc(-c2ccc(OC3CCC3)c(Cl)c2)ncn1
< 0.02
8. O=C(O)c1cc(-c2ccc(OC3COC3)c(Cl)c2)ncn1
< 0.02

###

assay: Clearance in Sprague-Dawley rat plasma at 6.2 mg equivalents/kg, iv; type: ADME, cell-free
experimental_readout: clearance (mL/min/kg)

1) O=C(O)c1cc(-c2ccc(OC3CC3)c(Cl)c2)ncn1
4.83

###

assay: Permeability from basolateral to apical side in human Caco2 cells; format: ADME, cell-based; settings: Caco-2, read-out: permeability
The entries below are paired with their reported Papp B→A.
experimental_readout: Papp B→A

1. O=C(O)c1cc(-c2cc(Cl)c3occc3c2)ncn1
41 ×10⁻⁶ cm/s
2. CC(C)Oc1ccc(-c2cc(C(=O)O)ncn2)cc1Cl
21.2 ×10⁻⁶ cm/s
3. COc1ccc(-c2cc(C(=O)O)ncn2)cc1Cl
31.3 ×10⁻⁶ cm/s
4. O=C(O)c1cc(-c2ccc(Cl)c(Cl)c2)ncn1
32.4 ×10⁻⁶ cm/s
5. Cc1ccc(-c2cc(C(=O)O)ncn2)cc1Cl
35.3 ×10⁻⁶ cm/s
6. O=C(O)c1cc(-c2ccc(F)c(F)c2)ncn1
26 ×10⁻⁶ cm/s
7. O=C(O)c1cc(-c2ccc(OC3CC3)c(Cl)c2)ncn1
30.4 ×10⁻⁶ cm/s
8. O=C(O)c1cc(-c2ccc(OC(F)(F)F)c(Cl)c2)ncn1
17.1 ×10⁻⁶ cm/s
9. O=C(O)c1cc(-c2ccc(OC3CCCC3)c(Cl)c2)ncn1
16.7 ×10⁻⁶ cm/s

###

test: Permeability from apical to basolateral side in human Caco2 cells; assay type: ADME, cell-based; settings: Caco-2, read-out: permeability
The entries below are paired with their reported Papp A→B.
experimental_readout: Papp A→B (×10⁻⁶ cm/s)

1) O=C(O)c1cc(-c2ccc(OC3CC3)c(Cl)c2)ncn1
18.7
2) O=C(O)c1cc(-c2cc(Cl)c3occc3c2)ncn1
21.9
3) CC(C)Oc1ccc(-c2cc(C(=O)O)ncn2)cc1Cl
16.5
4) O=C(O)c1cc(-c2ccc(F)c(F)c2)ncn1
13.6
5) O=C(O)c1cc(-c2ccc(Cl)c(Cl)c2)ncn1
41.4
6) Cc1ccc(-c2cc(C(=O)O)ncn2)cc1Cl
24
7) O=C(O)c1cc(-c2ccc(OC3CCCC3)c(Cl)c2)ncn1
20.5
8) COc1ccc(-c2cc(C(=O)O)ncn2)cc1Cl
15.8
9) O=C(O)c1cc(-c2ccc(OC(F)(F)F)c(Cl)c2)ncn1
10.5

###

experiment: Tmax in Sprague-Dawley rat striatum at 10 mg equivalents/kg, po after 0.25 to 12 hrs; format: ADME, organism-based
experimental_readout: Tmax (min)

1) O=C(O)c1cc(-c2ccc(OC3CC3)c(Cl)c2)ncn1
30

###

assay: Fraction unbound in mouse plasma; format: ADME, cell-free
experimental_readout: fraction unbound

1) O=C(O)c1cc(-c2ccc(OC3CC3)c(Cl)c2)ncn1
0.036

###

assay: Half life in Sprague-Dawley rat plasma at 10 mg equivalents/kg, po after 0.25 to 12 hrs; type: ADME, organism-based
experimental_readout: half-life (min)

1. O=C(O)c1cc(-c2ccc(OC3CC3)c(Cl)c2)ncn1
102

###

List of IC50 tested on Kynurenine 3-monooxygenase (Mus musculus).
Sequence (Q91WN4 whole entry): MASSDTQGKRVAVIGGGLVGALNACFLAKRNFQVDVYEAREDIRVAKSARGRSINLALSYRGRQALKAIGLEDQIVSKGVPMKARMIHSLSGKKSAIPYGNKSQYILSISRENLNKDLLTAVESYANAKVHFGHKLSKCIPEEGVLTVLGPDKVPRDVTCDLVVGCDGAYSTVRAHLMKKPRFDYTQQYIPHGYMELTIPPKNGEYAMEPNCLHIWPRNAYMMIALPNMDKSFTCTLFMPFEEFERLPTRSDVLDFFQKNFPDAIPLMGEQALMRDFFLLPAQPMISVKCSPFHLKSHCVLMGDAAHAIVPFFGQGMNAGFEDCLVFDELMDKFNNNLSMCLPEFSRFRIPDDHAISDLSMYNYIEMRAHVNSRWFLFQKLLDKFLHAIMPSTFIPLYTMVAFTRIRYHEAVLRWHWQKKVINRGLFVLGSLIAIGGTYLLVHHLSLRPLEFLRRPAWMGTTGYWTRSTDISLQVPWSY
experimental_readout: IC50 (nM)

1. O=C(O)c1cc(-c2ccc(F)c(F)c2)ncn1
1.5
2. Cc1ccc(-c2cc(C(=O)O)ncn2)cc1Cl
6.2

###

The entries below are paired with their reported pIC50.
target: Kynurenine 3-monooxygenase (Homo sapiens); assay: Inhibition of human KMO assessed as conversion of kynurenine to 3-hydroxykynurenine by LC-MS/MS analysis
pIC50: −log10 of the molar value.
experimental_readout: pIC50

1. Clc1ccc(-c2cc(-n3cccn3)ncn2)cc1Cl
< 5.00
2. O=C(O)c1cc(-c2ccc(Cl)c(Cl)c2)ncn1
9.22
3. CS(=O)(=O)Nc1cc(-c2ccc(Cl)c(Cl)c2)ncn1
< 5.00

###

molecular target: Kynurenine 3-monooxygenase (Rattus norvegicus, UniProt O88867); experiment: Inhibition of KMO in rat microglia cells; format: cell-based
Sequence (O88867 whole entry): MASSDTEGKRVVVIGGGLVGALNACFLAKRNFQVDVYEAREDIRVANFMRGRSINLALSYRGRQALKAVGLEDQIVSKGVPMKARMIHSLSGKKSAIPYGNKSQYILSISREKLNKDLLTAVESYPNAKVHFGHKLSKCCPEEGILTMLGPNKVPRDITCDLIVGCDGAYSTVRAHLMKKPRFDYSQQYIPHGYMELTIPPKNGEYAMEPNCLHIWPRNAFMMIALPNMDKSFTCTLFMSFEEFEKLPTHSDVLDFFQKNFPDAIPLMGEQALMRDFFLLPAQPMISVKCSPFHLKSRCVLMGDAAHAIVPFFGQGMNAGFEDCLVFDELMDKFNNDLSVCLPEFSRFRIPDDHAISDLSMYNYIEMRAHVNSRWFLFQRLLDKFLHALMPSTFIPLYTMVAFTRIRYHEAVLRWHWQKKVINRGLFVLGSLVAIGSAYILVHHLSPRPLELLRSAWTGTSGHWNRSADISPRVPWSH
The entries below are paired with their reported IC50.
experimental_readout: IC50 (µM)

1. O=C(O)c1cc(-c2ccc(F)c(F)c2)ncn1
0.086
2. Cc1ccc(-c2cc(C(=O)O)ncn2)cc1Cl
0.1
3. O=C(O)c1cc(-c2ccc(OC3CC3)c(Cl)c2)ncn1
0.072
4. O=C(O)c1cc(-c2ccc(Cl)c(Cl)c2)ncn1
0.105

###

test: Half life in Sprague-Dawley rat liver at 10 mg equivalents/kg, po after 0.25 to 12 hrs; type: ADME, organism-based
experimental_readout: half-life (h)

1) O=C(O)c1cc(-c2ccc(OC3CC3)c(Cl)c2)ncn1
2.5
